// data source = patent US7713994B2

pIC50 values by entry
# System: LoVo
# experiment-description: Cytotoxicity assay (SRB), LoVo
# Type: cell-based
# measurement-context: Homo sapiens, LoVo, 72 h, LoVo cells, SRB, three days; read-out: In Vitro Cellular Activity IC50 LOVO
Expect pIC50 as a plain number equal to -log10 of the molar concentration.

// below: answered molecules
smi	reported
Nc1ccc(CN/C=C2\C(=O)NC(=O)c3ccc(Br)cc32)cc1O	4.43
CN1CCN(c2ccc(N/C=C3\C(=O)NC(=O)c4ccc(Br)cc43)cc2)CC1	5.42
CC(=O)Oc1ccc(CN/C=C2\C(=O)NC(=O)c3ccc(Br)cc32)cc1OC(C)=O	5.23
CC(C)N1CCN(c2ccc(N/C=C3\C(=O)NC(=O)c4ccc(I)cc43)cc2)CC1	5.19
CCCOc1ccc(CN/C=C2\C(=O)NC(=O)c3ccc(I)cc32)cc1OC(=O)CCl	6.05
O=C1NC(=O)c2ccc(I)cc2/C1=C/NCc1ccc(NC(=O)c2ccccc2)c(O)c1	5.23

Next, consider the following molecule.
Requested read-out: pIC50. Entry: CN1CCN(c2ccc(N/C=C3\C(=O)NC(=O)c4ccc(C#Cc5ccccc5)cc43)cc2)CC1
5.01

* * *

# Test system: LoVo
# experiment-description: Cytotoxicity assay (SRB), LoVo
# Format: cell-based
# measurement-context: Homo sapiens, LoVo, 72 h, LoVo cells, 3 days, SRB; read-out: In Vitro Cellular Activity IC50 LOVO
// NB: equality with 7 µM counts as Condition not met; only IC50 strictly below is Condition met

Observe how each entry below is paired with its result.
smi	label-class
O=C1NC(=O)c2ccc(I)cc2/C1=C/Nc1ccc(CN2CCC(O)CC2)cc1	Condition met
NS(=O)(=O)c1ccc(CNC=C2C(=O)NC(=O)c3ccc(C=Cc4ccccn4)cc32)cc1	Condition not met
CCC(=O)Nc1cnc(CN/C=C2\C(=O)NC(=O)c3ccc(I)cc32)cc1O	Condition not met

As a next step, examine the compound that follows.
Does the reported IC50 of O=C1NC(=O)c2ccc(-c3ccc[nH]3)cc2C1=CNc1ccc(CN2CCCC2)cc1 stay below 7 µM?
Condition not met

* * *

# assayed-system: cyclin B/CDK1 enzyme (Homo sapiens, UniProt P06493)
# Construct: purchased New England BioLabs; host or cells: Sf9 insect cells, recombinant baculovirus
# Sequence (P06493 whole entry): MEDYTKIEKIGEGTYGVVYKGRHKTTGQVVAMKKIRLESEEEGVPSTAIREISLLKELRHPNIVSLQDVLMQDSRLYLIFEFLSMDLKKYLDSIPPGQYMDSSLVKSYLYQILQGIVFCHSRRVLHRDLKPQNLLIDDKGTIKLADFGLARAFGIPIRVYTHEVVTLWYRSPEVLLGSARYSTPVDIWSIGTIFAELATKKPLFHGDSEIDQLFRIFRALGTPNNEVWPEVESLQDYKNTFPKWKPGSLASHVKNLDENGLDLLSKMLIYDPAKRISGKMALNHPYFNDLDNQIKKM
# Sequence (P14635 whole entry partner): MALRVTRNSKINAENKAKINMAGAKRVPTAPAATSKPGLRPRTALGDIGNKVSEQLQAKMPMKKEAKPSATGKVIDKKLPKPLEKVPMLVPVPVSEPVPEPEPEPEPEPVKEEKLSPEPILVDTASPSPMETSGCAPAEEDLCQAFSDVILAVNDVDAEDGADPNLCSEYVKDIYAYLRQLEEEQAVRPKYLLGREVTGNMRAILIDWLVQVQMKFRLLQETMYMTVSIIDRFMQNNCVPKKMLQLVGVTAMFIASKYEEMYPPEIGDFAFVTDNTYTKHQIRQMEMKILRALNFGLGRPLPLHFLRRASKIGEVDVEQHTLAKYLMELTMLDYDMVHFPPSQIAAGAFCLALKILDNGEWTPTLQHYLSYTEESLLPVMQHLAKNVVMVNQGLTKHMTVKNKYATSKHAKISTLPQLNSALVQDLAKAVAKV
# experiment-description: CDK1 ELISA kinase assay (phospho-Rb ser 795 detection)
# Format: biochemical
# measurement-context: In Vitro Enzyme Assays, read-out: CDK1 IC50
Each entry below carries its reported IC50.

Please review the following examples before continuing.
compound	property-measured	reported
CN1CCN(Cc2ccc(N/C=C3\C(=O)NC(=O)c4ccccc43)cc2)CC1 [Example 20]	IC50	> 26 µM
O=C1NC(=O)c2ccc(I)cc2/C1=C/Nc1ccc(N2CCC(CO)CC2)cc1 [Example 434]	IC50	40.6 µM
CC(C)Oc1ccc(CN/C=C2\C(=O)NC(=O)c3ccc(Br)cc32)cc1O [Example 137]	IC50	> 50 µM
C=CC(=O)Nc1ccc2c(c1)/C(=C/Nc1ccc(N3CCN(C)CC3)cc1)C(=O)NC2=O [Example 385]	IC50	11.5 µM
O=C1NCc2ccccc2/C1=C/Nc1ccc(-c2c[nH]cn2)cc1 [compound 3]	IC50	> 32 µM

Next:
What value of IC50 has been recorded for this entry: CC(CN(C)C)N1CCN(c2ccc(N/C=C3\C(=O)NC(=O)c4ccc(I)cc43)cc2)CC1 (centres unmarked) [Example 400]
> 50 µM

* * *

# assayed-system: cyclin B/CDK1 enzyme (Homo sapiens)
# Construct: purchased New England BioLabs; host or cells: Sf9 insect cells, recombinant baculovirus
# experiment-description: CDK1 ELISA kinase assay (phospho-Rb ser 795 detection)
# Format: biochemical
# measurement-context: In Vitro Enzyme Assay, cyclin B/CDK1, read-out: CDK1 IC50
property-measured: pIC50
In textbook form, pIC50 equals minus log to base ten of the concentration in mol/L.

smi	reported
CN(Cc1ccc(NC=C2C(=O)NC(=O)c3ccccc32)cc1)C1CCCCC1	4.75
NS(=O)(=O)c1ccc(CNC=C2C(=O)NC(=O)c3ccc(-c4ccc(Cl)cc4)cc32)cc1	4.41
O=C1NC(=O)c2ccc(-c3ccc4[nH]ccc4c3)cc2C1=CNCc1ccc(O)c(O)c1	4.87
NS(=O)(=O)c1ccc(CNC=C2C(=O)NC(=O)c3ccc(C=Cc4cnccn4)cc32)cc1	4.63

# returns recorded pIC50 (system: cyclin B/CDK1 enzyme (Homo sapiens)) for NS(=O)(=O)c1ccc(CNC=C2C(=O)NC(=O)c3ccc(-c4cc5ccccc5s4)cc32)cc1
4.77

Return pIC50 measured with cyclin B/CDK1 enzyme (Homo sapiens) given this compound: C[C@@H]1CN(c2ccc(N/C=C3\C(=O)NC(=O)c4ccc(Br)cc43)nc2)C[C@H](C)N1
5.57

API: value(readout= pIC50, system= cyclin B/CDK1 enzyme (Homo sapiens), query= O=C1NC(=O)c2ccc(I)cc2/C1=C/NCc1cc(O)c(-c2ccoc2)cn1 )
4.87

Give cyclin B/CDK1 enzyme (Homo sapiens) pIC50 for O=C1NC(=O)c2ccc(-c3ccoc3)cc2/C1=C/NCc1ccc(-c2ccccc2)c(O)c1
4.37

Short answer please: pIC50, cyclin B/CDK1 enzyme (Homo sapiens), entry CC(C)(C)c1ccc2c(c1)/C(=C/NCc1ccn(-c3ccoc3)c(=O)c1)C(=O)NC2=O
5.19

* * *

Each entry below lists one item and its recorded pIC50 value.
# assayed-system: cyclin B/CDK1 enzyme (Homo sapiens)
# Construct: purchased New England BioLabs; host or cells: Sf9 insect cells, recombinant baculovirus
# experiment-description: CDK1 ELISA kinase assay (phospho-Rb ser 795 detection)
# Format: biochemical
# measurement-context: In Vitro Enzyme Assays, read-out: CDK1 IC50
pIC50: −log10 of the molar value.

compound	property-measured	reported
CC#CC(=O)Nc1ccc(CN/C=C2\C(=O)NC(=O)c3ccc(I)cc32)cc1O [Example 339]	pIC50	6.09
Cc1ccc(C)n1-c1ccc2c(c1)/C(=C/Nc1ccc(N3CCN(C)CC3)cc1)C(=O)NC2=O [Example 226]	pIC50	< 4.30

# lookup: pIC50 of COc1cnc(CNC=C2C(=O)NC(=O)c3ccc(I)cc32)cc1O [Example 362]
4.83

* * *

# assayed-system: cyclin D1/cdk 4 enzyme (Homo sapiens)
# Construct: made in house; host or cells: Sf9 insect cells, recombinant baculovirus
# experiment-description: CDK4 ELISA kinase assay (phospho-Rb ser 795 detection)
# Format: biochemical
# measurement-context: In Vitro Enzyme Assays, 200 μM ATP, read-out: CDK4 IC50
Below: a set of entries, each annotated with reported pIC50.
In plain terms, pIC50 is the concentration in mol/L turned into minus its base-10 logarithm.

These recorded examples may help you get a feel for the data.
smi	reported
CN(C)CCNCC1CCN(c2ccc(N/C=C3\C(=O)NC(=O)c4ccc(I)cc43)cc2)CC1	6.55
O=C1NC(=O)c2ccc(Br)cc2/C1=C/N1CCN(CCN2CCOCC2)CC1	4.61
O=C1NC(=O)c2ccc(-c3ccoc3)cc2/C1=C/Nc1ccc(CN2CCCCC2)cc1	7.43
COc1cc(CN/C=C2\C(=O)NC(=O)c3ccc(-c4ccc(Cl)cc4)cc32)cc(O)c1OC	7.70
COc1cc2c(cc1-c1ccc(F)cc1)/C(=C/Nc1ccc(CN3CCCCC3)cc1)C(=O)NC2=O	5.54
C[C@@H]1CN(c2ccc(N/C=C3\C(=O)NC(=O)c4ccc(-c5ccc(F)cc5)cc43)cc2F)C[C@H](C)N1	5.04

Then there is this molecule:
Fill blank: measured pIC50 of the molecule O=C1NC(=O)c2ccc(-c3ccsc3)cc2/C1=C/Nc1ccc(N2CCN3CCC[C@H]3C2)c(F)c1 is ____.
6.54

* * *

# assayed-system: cyclin D1/cdk 4 enzyme (Homo sapiens, UniProt P11802)
# Construct: made in house; host or cells: Sf9 insect cells, recombinant baculovirus
# Sequence (P11802 whole entry, species assumed): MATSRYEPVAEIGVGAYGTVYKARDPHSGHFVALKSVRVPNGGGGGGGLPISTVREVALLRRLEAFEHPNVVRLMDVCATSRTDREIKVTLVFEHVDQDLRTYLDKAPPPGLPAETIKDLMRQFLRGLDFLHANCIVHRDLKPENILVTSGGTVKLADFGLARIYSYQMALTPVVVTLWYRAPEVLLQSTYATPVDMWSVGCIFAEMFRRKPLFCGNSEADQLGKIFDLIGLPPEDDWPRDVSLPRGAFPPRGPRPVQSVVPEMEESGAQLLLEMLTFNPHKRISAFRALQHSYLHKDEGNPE
# Sequence (P24385 whole entry partner, species assumed): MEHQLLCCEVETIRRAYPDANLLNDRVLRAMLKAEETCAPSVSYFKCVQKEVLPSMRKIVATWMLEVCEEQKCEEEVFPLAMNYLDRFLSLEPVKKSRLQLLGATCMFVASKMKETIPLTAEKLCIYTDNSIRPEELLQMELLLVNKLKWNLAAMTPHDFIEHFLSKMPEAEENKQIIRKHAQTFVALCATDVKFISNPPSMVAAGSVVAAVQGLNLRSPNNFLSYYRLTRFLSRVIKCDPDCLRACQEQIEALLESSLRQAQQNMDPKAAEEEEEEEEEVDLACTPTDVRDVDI
# experiment-description: CDK4 ELISA kinase assay (phospho-Rb ser 795 detection)
# Format: biochemical
# measurement-context: In Vitro Enzyme Assay, cyclin D1/cdk 4, read-out: CDK4 IC50
Hi! Could you tag entries with IC50 below 5 µM as yes, and those at or above as no? Much appreciated.

compound	label-class
CN1CCN(c2ccc(NC=C3C(=O)NC(=O)c4ccc(C=CCO)cc43)cc2)CC1	yes
CN(C)CC(=O)Nc1ccc(CN/C=C2\C(=O)NC(=O)c3ccc(I)cc32)cc1O	yes
N=C(N)c1ccc(NC=C2C(=O)NCc3cc(Br)ccc32)cc1	no
CN1CCN(c2ncc(N/C=C3\C(=O)NC(=O)c4ccc(I)cc43)cn2)CC1	yes
O=C1NC(=O)c2ccc(-c3cccc(F)c3)cc2C1=CNCc1ccc(O)c(O)c1	yes
CN1CCCC1c1ccc(N/C=C2\C(=O)NC(=O)c3ccc(I)cc32)nc1 (stereo not shown)	no

For O=C1NC(=O)c2ccc(-c3ccc(F)cc3)cc2/C1=C/Nc1ccc(CN2CCC(CCO)CC2)cc1 , is the recorded IC50 below the cut-off of 5 µM?
yes
